This listing pairs molecules with measured viability, T/C.
Test system: 695427-040-R-J1-PDC complex spheroid viability;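 further: spheroids exposed to compounds for seven days; 100% = DMSO vehicle control viability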
assay summary: Anticancer human tumor 695427-040-R-J1-PDC patient-derived colon adenocarcinoma cell line growth inhibition [POLQ]
conditions: second compound 0.316 µM; first compound 1 µM; hits give low values
experimental readout: viability, T/C (%)

[[record]]
molecule = "COc1cccc(OCCCN)c1-c1cc(Nc2cnc(C#N)cn2)n[nH]1 + Nc1ccc(C#CCN(C(=O)Cc2ncc(C(F)(F)F)cc2C(F)(F)F)c2ccc(F)cc2)nn1"
experimental_readout = "viability, T/C"
units_label = "%"
measurement = 49.7

[[record]]
molecule = "Nc1ccn(C2OC(CO)C(O)C2(F)F)c(=O)n1 (stereo not drawn) + Cc1cccc(N(C)C(=O)C2C(O)CCN2c2nc(C)cc(C(F)(F)F)c2C#N)c1"
experimental_readout = "viability, T/C"
units_label = "%"
measurement = 72.8

[[record]]
molecule = "CNCc1ccc(-c2[nH]c3cc(F)cc4c3c2CCNC4=O)cc1 + Nc1ccc(C#CCN(C(=O)Cc2ncc(C(F)(F)F)cc2C(F)(F)F)c2ccc(F)cc2)nn1"
experimental_readout = "viability, T/C"
units_label = "%"
measurement = 104

